- TEST_TARGET: rat CB2 (Rattus norvegicus (Rat))
- Sequence (Q9QZN9 whole entry): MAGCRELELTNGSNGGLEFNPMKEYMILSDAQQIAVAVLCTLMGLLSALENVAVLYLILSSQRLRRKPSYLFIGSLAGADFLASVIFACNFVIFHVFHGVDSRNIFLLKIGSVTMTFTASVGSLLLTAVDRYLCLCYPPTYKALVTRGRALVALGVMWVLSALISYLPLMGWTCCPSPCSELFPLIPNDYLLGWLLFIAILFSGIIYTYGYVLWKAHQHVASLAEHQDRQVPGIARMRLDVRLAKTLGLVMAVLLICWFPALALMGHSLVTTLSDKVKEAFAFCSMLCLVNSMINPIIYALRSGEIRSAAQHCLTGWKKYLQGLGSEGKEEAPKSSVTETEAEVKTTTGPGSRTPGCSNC
- ASSAY_EXPLANATION: rat CB2 radioligand binding assay ([3H]CP 55,940 competition)
ATTRIBUTE_MEASURED: Ki (µM)
Give a bare numeral; the unit µM is implied.

Incoming: Request: Ki, test system rat CB2 (Rattus norvegicus (Rat)), entry Cn1c(C(C)(C)C)c/c(=N\C(=O)c2cc(C(F)(F)F)ccc2ONC(C)(C)C)n1CCC(F)(F)F
Outgoing: 0.01

Incoming: Request: Ki, test system rat CB2 (Rattus norvegicus (Rat)), entry Cn1c(C(C)(C)C)c/c(=N\C(=O)c2cc(C(F)(F)F)ccc2ONC(C)(C)C)n1C[C@H]1CCCO1
Outgoing: 0.0094

Incoming: Request: Ki, test system rat CB2 (Rattus norvegicus (Rat)), entry Cn1c(C(C)(C)C)c/c(=N\C(=O)c2cc(C(F)(F)F)ccc2ONC(C)(C)C)n1CC1CC1
Outgoing: 0.014

Incoming: Request: Ki, test system rat CB2 (Rattus norvegicus (Rat)), entry Cn1c(C(C)(C)C)c/c(=N\C(=O)c2cc(C(F)(F)F)ccc2ONC(C)(C)C)n1CC1CCC1
Outgoing: 0.014
